# Study system: human PRS protein (His-Avi-hEPRS (998-1512)) (Homo sapiens)
# Construct: to construct His-Avi-hEPRS (998-1512) expression plasmid; His tag (N); Avi tag (N); TEV cleavage site (ENLYFQG, then S; inferred from the forward primer hEPRS-TEV-NheF) (N); made in house; host or cells: E. coli BL21(DE3)
# Sequence (P07814 998-1512 limits assumed): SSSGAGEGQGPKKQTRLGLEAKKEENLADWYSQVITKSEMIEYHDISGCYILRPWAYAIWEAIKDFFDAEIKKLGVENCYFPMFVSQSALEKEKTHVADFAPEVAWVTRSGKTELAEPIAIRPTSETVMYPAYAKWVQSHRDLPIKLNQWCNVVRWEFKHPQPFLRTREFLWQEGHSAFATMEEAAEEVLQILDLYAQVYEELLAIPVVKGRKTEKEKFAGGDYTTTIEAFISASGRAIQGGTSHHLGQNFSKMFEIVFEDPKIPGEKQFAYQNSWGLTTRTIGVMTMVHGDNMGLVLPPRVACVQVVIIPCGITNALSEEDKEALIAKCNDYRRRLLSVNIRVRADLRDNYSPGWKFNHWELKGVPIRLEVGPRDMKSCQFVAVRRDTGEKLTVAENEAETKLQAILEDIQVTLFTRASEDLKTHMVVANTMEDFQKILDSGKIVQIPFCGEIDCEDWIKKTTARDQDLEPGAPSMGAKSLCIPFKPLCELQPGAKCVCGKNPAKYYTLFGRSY
# Measurement notes: PRS inhibitory activity ([32P]pyrophosphate exchange enzyme assay)
# Type: biochemical
# Protocol conditions: 300 nM test compound; read-out: inhibitory rate (%) of PRS
Reported metric: inhibition at 0.3 µM (%)
Your answer should be a plain number; it is taken to be in %.

> print(dat)
                                   compound                              study.system  result.units  value
1  Cc1cc(N2CCC(C)(C)C2=O)cc(C(=O)NCc2cc(F)cc(-c3cnn(C)c3)c2)n1  human PRS protein (His-Avi-hEPRS (998-1512)) (Homo sapiens)             %    100
2  CC(C)c1nc2ccnc(C(=O)NCc3cc(F)cc(-c4cnn(C)c4)c3)c2[nH]1  human PRS protein (His-Avi-hEPRS (998-1512)) (Homo sapiens)             %     96

Tell me inhibition at 0.3 µM reported for "Cn1cc(-c2cc(F)cc(CNC(=O)c3nccc4nc(C5CCCC5)n(C)c34)c2)ccc1=O"
100

Supply measured inhibition at 0.3 µM of "Cn1cc(-c2cc(F)cc(CNC(=O)c3ncnc4nc(C5CCCC5)n(C)c34)c2)ccc1=O" in your reply.
101

Tell us which inhibition at 0.3 µM value is on record for CC(c1nc2ncnc(C(=O)NCc3cc(F)cc(-c4cnn(C)c4)c3)c2[nH]1)C1CC1 (stereo not shown)
101

Determine from records and report inhibition at 0.3 µM for "Cn1ncc2c(CNC(=O)c3nccc4nc(C5CCCC5)[nH]c34)cccc21"
91

Assign inhibition at 0.3 µM to the following record: "Cc1cc(N2CC[C@@](C#N)(C3CC3)C2=O)cc(C(=O)NCc2cc(-c3cnn(C)c3)cc(C(F)(F)F)c2)n1"
83
